Tested on: MERS WT
Assay: microbe, parasite or virus in culture
Format: cell-based
Settings: Middle East respiratory syndrome-related coronavirus, read-out: MERS WT (μM)
Property Label: log10 of IC50 (log10 of the value in µM)
Remember, log10 of IC50, in µM.

Data request: So what's the measured log10 of IC50 for this one? CC(NC(=O)C(Cc1ccccc1)NC(=O)Cc1ccccc1)C(=O)C(=O)NC(Cc1ccccc1)C(=O)NC(Cc1ccc(C(C)(C)C)cc1)C(N)=O (stereo not drawn)
Data returned: 0.12

Data request: Need log10 of IC50, item CC(NC(=O)C(Cc1ccc2ccccc2c1)NC(=O)Cc1ccccc1)C(=O)C(=O)NC(Cc1ccccc1)C(=O)NC(C)(C)C(N)=O (stereo not drawn)
Data returned: 1.10

Data request: Which log10 of IC50 reading was recorded for the compound CC(NC(=O)C(Cc1ccccc1)NC(=O)Cc1ccccc1)C(=O)C(=O)NC(Cc1ccc(C(F)(F)F)cc1)C(=O)NC(Cc1ccc(-c2ccccc2)cc1)C(N)=O (stereo not drawn) ?
Data returned: 0.41

Data request: Looking for the measured log10 of IC50 of CC(NC(=O)C(Cc1ccccc1)NC(=O)c1ccccc1)C(=O)C(=O)NC(Cc1ccccc1)C(=O)NC(C)(C)C(N)=O (stereo not drawn) , can you help?
Data returned: 1.55

Data request: Which value of log10 of IC50 has been reported for CC(NC(=O)C(Cc1ccccc1)NC(=O)Cc1ccccc1)C(=O)C(=O)NC(Cc1ccccc1C(F)(F)F)C(=O)NC(Cc1ccc(-c2ccccc2)cc1)C(N)=O (stereo not drawn) in the records?
Data returned: 0.34
